Molecular target: T1, human CTLA-4 (Y201V), full length, on transfected cells (human, UniProt P16410 36-223)
T1 construct: whole, on cells; also called hCTLA-4; HEK293-hCTLA-4 (Y201V)
T1 sequence (looked up): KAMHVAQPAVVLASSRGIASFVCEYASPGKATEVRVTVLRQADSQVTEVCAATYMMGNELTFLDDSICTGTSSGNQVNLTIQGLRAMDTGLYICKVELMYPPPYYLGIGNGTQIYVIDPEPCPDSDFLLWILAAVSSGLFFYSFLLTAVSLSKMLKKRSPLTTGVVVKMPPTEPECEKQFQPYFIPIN
Test: FACS, CHOK1-hCTLA-4 cells
Give MFI at 0.07 nM for every item shown.
I only need the number, thanks.

Specify reported MFI at 0.07 nM for the binder shown: 40C4C6 (chimeric antibody purified from hybridoma supernatant) (antibody, V domains shown, also called mAb09; mAb009) VH: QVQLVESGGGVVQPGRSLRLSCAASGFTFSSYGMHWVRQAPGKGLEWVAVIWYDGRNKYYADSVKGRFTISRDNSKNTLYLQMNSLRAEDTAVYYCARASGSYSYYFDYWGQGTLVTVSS VL: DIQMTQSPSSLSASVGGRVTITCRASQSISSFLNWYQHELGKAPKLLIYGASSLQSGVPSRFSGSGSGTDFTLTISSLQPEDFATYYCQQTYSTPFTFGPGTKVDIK
43.3

Specify reported MFI at 0.07 nM for the binder shown: 31C12F3 (chimeric antibody purified from hybridoma supernatant) (antibody, V domains shown, also called mAb010) VH: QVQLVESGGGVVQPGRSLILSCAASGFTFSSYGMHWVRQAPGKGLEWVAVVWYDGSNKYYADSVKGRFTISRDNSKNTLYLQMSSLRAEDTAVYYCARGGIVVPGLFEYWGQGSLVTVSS VL: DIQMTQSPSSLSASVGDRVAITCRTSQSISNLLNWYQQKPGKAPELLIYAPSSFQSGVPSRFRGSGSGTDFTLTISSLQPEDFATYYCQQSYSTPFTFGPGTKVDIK
27.6

Specify reported MFI at 0.07 nM for the binder shown: 92C8B6 (chimeric antibody purified from hybridoma supernatant) (antibody, V domains shown, also called mAb42; mAb042) VH: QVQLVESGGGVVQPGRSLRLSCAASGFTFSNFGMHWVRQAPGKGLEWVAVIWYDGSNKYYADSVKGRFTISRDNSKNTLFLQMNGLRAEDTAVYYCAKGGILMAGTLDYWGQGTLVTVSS VL: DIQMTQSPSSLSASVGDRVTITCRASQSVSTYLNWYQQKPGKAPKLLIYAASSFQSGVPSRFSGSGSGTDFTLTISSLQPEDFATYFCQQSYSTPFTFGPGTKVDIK
29

Specify reported MFI at 0.07 nM for the binder shown: 97A8D1 (chimeric antibody purified from hybridoma supernatant) (antibody, V domains shown, also called mAb49; mAb049) VH: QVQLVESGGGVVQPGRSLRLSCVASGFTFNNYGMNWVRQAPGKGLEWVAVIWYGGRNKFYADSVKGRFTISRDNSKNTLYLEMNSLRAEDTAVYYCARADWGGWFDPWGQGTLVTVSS VL: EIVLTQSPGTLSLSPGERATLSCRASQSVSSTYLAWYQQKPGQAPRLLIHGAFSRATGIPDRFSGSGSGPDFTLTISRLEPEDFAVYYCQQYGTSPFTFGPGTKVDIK
20
